Known Total Cell Count of a selection of compounds
# System: Fibroblast
# test name: Multiplex assay against human fibroblast
# Format: toxicity, cell-based
# condition notes: 48 h, 10 µM, compound concentration 10 uM, replicate 1
Note: the reply should be a number with no unit written.

See these solved cases before continuing.
{"compound": "N#Cc1c(Oc2cccc(OS(=O)(=O)CCCC(F)(F)F)c2)cccc1C(F)(F)F", "Total Cell Count": 172}
{"compound": "CCCOc1ccc2[nH]cc(C3=CCNCC3)c2n1.Cl", "Total Cell Count": 150}
{"compound": "O=C(CCCc1ccccc1)Nc1nc2ccccc2c(=O)s1", "Total Cell Count": 143}
{"compound": "CC(=O)Nc1cccc2c1c(Sc1ccc(Cl)cc1)c(C)n2CC(=O)O", "Total Cell Count": 134}
{"compound": "C[C@H](N)COC(=O)[C@@H](CCCCN)NC(=O)Cc1c(-c2ccc3ccccc3c2)[nH]c2c1ccc1ccccc12", "Total Cell Count": 185}
{"compound": "COC[C@@H](c1ccc(C(F)(F)F)cc1)N1CCN(C2(C)CCN(C(=O)c3c(C)ncnc3C)CC2)C[C@@H]1C.O=C(O)/C=C\\C(=O)O [VICRIVIROC MALEATE]", "Total Cell Count": 206}

Please look at the following compound next.
Dear colleague, I am looking for the recorded Total Cell Count of the following compound: Br.CS(=O)(=O)Nc1c(O)ccc2c1CCCC2C1=NCCN1 (stereo not drawn)
145

---

# System: HEK-293T
# test name: Multiplex assay against HEK293T
# Format: toxicity, cell-based
# condition notes: human, 24 h, 10 µM, compound concentration 10 uM, replicate 1
Known Population Tubulin-Different-Phenotype (%) of a selection of compounds
Response body: numeric value in %, unit text excluded.

Observe how each entry below is paired with its result.
{"compound": "CC(=O)Nc1cccc2c1c(Sc1ccc(Cl)cc1)c(C)n2CC(=O)O", "quantitative readout": 25}
{"compound": "Cc1sc2c(c1C)C(c1ccc(Cl)cc1)=N[C@@H](CC(=O)NCCCCCCCCNC(=O)COc1cccc3c1C(=O)N(C1CCC(=O)NC1=O)C3=O)c1nnc(C)n1-2 (some centres undefined)", "quantitative readout": 19}
{"compound": "CCc1cc2cc(NS(=O)(=O)c3ccc(C#N)cc3)ccc2n(CC)c1=O", "quantitative readout": 32}

Return reported Population Tubulin-Different-Phenotype (%); argument: COc1ccccc1N1CCN(C[C@@H](C(=O)NC(C)(C)C)c2ccccc2)CC1.Cl.Cl
61

What value of Population Tubulin-Different-Phenotype (%) has been recorded for this entry: CCCCCC(O)/C=C/[C@H]1C(=O)CC(O)C1C/C=C\CCCC(=O)O (some centres undefined)
16

Quick one: Population Tubulin-Different-Phenotype (%) of O=C1[C@H](Cc2ccc(O)cc2)N2C(=O)CCN(C(=O)NCc3ccccc3)[C@H]2CN1Cc1cccc2ccccc12 ?
65

Tell me the measured Population Tubulin-Different-Phenotype (%) of CN(C)C(=O)Cn1cc(-c2ccc(-c3cncc4ccccc34)cc2)cn1 , please.
44

I'd like to know its Population Tubulin-Different-Phenotype (%). The compound in question is CCCOc1ccc2[nH]cc(C3=CCNCC3)c2n1.Cl
38

Any idea what its Population Tubulin-Different-Phenotype (%) is? The compound is N#Cc1c(Oc2cccc(OS(=O)(=O)CCCC(F)(F)F)c2)cccc1C(F)(F)F
56

Name the reported Population Tubulin-Different-Phenotype (%) value associated with the compound COc1cccc2c1c(NS(=O)(=O)c1ccc(Cl)s1)nn2Cc1cccc(CNC(=O)C(C)(C)O)c1
23

// query Population Tubulin-Different-Phenotype (%) value for entry O=C(CCCc1ccccc1)Nc1nc2ccccc2c(=O)s1
29

Consider the compound O=C(NCCN1CCC(n2c(=O)[nH]c3cc(Cl)ccc32)CC1)c1ccc(F)cc1 [HALOPEMIDE] and give its measured Population Tubulin-Different-Phenotype (%).
64

Give the measured Population Tubulin-Different-Phenotype (%) of Cc1noc(-c2ccc(-c3ccc(CC(=O)O)cc3)cc2)c1NC(=O)O[C@H](C)c1ccccc1Cl .
47

Which Population Tubulin-Different-Phenotype (%) value belongs to Cl.NCCc1ccc(O)c(O)c1 [DOPAMINE HYDROCHLORIDE] ?
23

Form field: reported Population Tubulin-Different-Phenotype (%) of N#Cc1cc(F)cc(-c2nc(-c3ccc(F)cn3)no2)c1
18

What does the record list as Population Tubulin-Different-Phenotype (%) for Cc1cccc(NC(=O)CN2CCC(c3ccccn3)CC2)c1.Cl.Cl ?
38

Reported Population Tubulin-Different-Phenotype (%) for Br.CS(=O)(=O)Nc1c(O)ccc2c1CCCC2C1=NCCN1 (centres undefined) : what is it?
23

// query Population Tubulin-Different-Phenotype (%) value for entry Cl.N=C(N)NC(=O)Cc1c(Cl)cccc1Cl [GUANFACINE HYDROCHLORIDE]
39

Recorded Population Tubulin-Different-Phenotype (%) for CC(/C=C1\SC(=S)N(CCCC(=O)Nc2ccc(C(=O)O)c(O)c2)C1=O)=C\c1ccccc1 , please?
31

---

The entries below come with measured Population Apoptotic (%) values attached.
# System: U2OS
# test name: Multiplex assay against U2OS
# Assay type: toxicity, cell-based
# condition notes: human, 24 h, 10 µM, compound concentration 10 uM, replicate 1
Note: unit % is implicit; provide only the numeric part.

Field: example entries. Status: answers known.
{"molecule": "CC[C@@H](C)Nc1nc(C)nc2c(-c3ccc(OC)nc3C)c(C)nn12", "Population Apoptotic (%)": 80}
{"molecule": "Cc1cccc(NC(=O)CN2CCC(c3ccccn3)CC2)c1.Cl.Cl", "Population Apoptotic (%)": 85}
{"molecule": "CCCCCC(O)/C=C/[C@H]1C(=O)CC(O)C1C/C=C\\CCCC(=O)O (stereo not given in full)", "Population Apoptotic (%)": 100}
{"molecule": "COc1cccc2c1c(NS(=O)(=O)c1ccc(Cl)s1)nn2Cc1cccc(CNC(=O)C(C)(C)O)c1", "Population Apoptotic (%)": 90}

Observed Population Apoptotic (%) on U2OS for O=C1[C@H](Cc2ccc(O)cc2)N2C(=O)CCN(C(=O)NCc3ccccc3)[C@H]2CN1Cc1cccc2ccccc12 , please.
65

---

Population Hoechst High Intensity Objects (%): recorded values
# System: HEK-293T
# test name: Multiplex assay against HEK293T
# Assay type: toxicity, cell-based
# condition notes: human, 48 h, 1 µM, compound concentration 1 uM, replicate 2
State the answer as a number, implicitly in %.

{"compound": "CCCCCC(O)/C=C/[C@H]1C(=O)CC(O)C1C/C=C\\CCCC(=O)O (stereo not given in full)", "quantitative readout": 3}
{"compound": "O=C(NCCN1CCC(n2c(=O)[nH]c3cc(Cl)ccc32)CC1)c1ccc(F)cc1 [HALOPEMIDE]", "quantitative readout": 3}
{"compound": "O=C1[C@H](Cc2ccc(O)cc2)N2C(=O)CCN(C(=O)NCc3ccccc3)[C@H]2CN1Cc1cccc2ccccc12", "quantitative readout": 3}
{"compound": "NCCc1cn(S(=O)(=O)c2c(Cl)nc3sccn23)c2ccccc12.O=C(O)C(=O)O", "quantitative readout": 5}

Next:
Which measured Population Hoechst High Intensity Objects (%) value corresponds to Cl.N=C(N)NC(=O)Cc1c(Cl)cccc1Cl [GUANFACINE HYDROCHLORIDE] ?
7

---

Below is a list of entries, each paired with its recorded Population Apoptotic (%) value.
# System: U2OS
# test name: Multiplex assay against U2OS
# Type: toxicity, cell-based
# condition notes: human, 48 h, 1 µM, compound concentration 1 uM, replicate 1
Value expressed in %; do not type the unit.

Consider the worked cases shown below.
{"compound": "CC(C)c1noc(N2CCC(COc3ccc(-c4ccc(S(C)(=O)=O)cc4)nc3)CC2)n1", "unit abbreviation": "%", "Population Apoptotic (%)": 77}
{"compound": "Br.CS(=O)(=O)Nc1c(O)ccc2c1CCCC2C1=NCCN1 (stereo unspecified)", "unit abbreviation": "%", "Population Apoptotic (%)": 74}
{"compound": "CC(=O)Nc1cccc2c1c(Sc1ccc(Cl)cc1)c(C)n2CC(=O)O", "unit abbreviation": "%", "Population Apoptotic (%)": 91}
{"compound": "CC(C)(C)c1cc(NC(=O)Nc2ccc(-c3cn4c(n3)sc3cc(OCCN5CCOCC5)ccc34)cc2)no1", "unit abbreviation": "%", "Population Apoptotic (%)": 60}
{"compound": "NCCc1cn(S(=O)(=O)c2c(Cl)nc3sccn23)c2ccccc12.O=C(O)C(=O)O", "unit abbreviation": "%", "Population Apoptotic (%)": 81}
{"compound": "Cc1cccc(NC(=O)CN2CCC(c3ccccn3)CC2)c1.Cl.Cl", "unit abbreviation": "%", "Population Apoptotic (%)": 82}

Need Population Apoptotic (%) of Cc1cnc(-c2cc(N3CCN(C(=O)CCS(C)(=O)=O)CC3)ncc2Cl)c(C)c1 , thanks.
78

Entry CCCOc1ccc2[nH]cc(C3=CCNCC3)c2n1.Cl has what Population Apoptotic (%)?
91

Please look up its Population Apoptotic (%): O=C(NCCN1CCC(n2c(=O)[nH]c3cc(Cl)ccc32)CC1)c1ccc(F)cc1 [HALOPEMIDE]
68

Would you mind telling me what Population Apoptotic (%) value was observed for C[C@H](N)COC(=O)[C@@H](CCCCN)NC(=O)Cc1c(-c2ccc3ccccc3c2)[nH]c2c1ccc1ccccc12 ?
79
